Below is a list of entries, each paired with its recorded % Inhibition value.
# MEASURED ON: MICB*005 on HCC1534 cells (human)
# METHOD SUMMARY: cell-based or functional assay; further: test concentration or dose not given here
The reply should contain only the number, in %.

Examples with answers:
{"columns": ["BINDER", "UNITS SYMBOL", "% Inhibition"],
 "data": [
  ["1D5v25 (antibody, IgG1, V domains shown, humanized variant of 1D5) VH: EVQLVQSGAEVKKPGASVKVSCKASGYAFTSQNIYWVRQAPGQGLEWIGYIEPYNVVPMYNPKFKGRVTITVDTSTSTAYLELSSLRSEDTAVYYCARSGSSNFDYWGQGTLVTVSS VL: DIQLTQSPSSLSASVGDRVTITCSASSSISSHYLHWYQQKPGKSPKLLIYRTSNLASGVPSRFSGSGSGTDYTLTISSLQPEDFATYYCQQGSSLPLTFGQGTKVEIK", "%", 28],
  ["15F11v2 (antibody, IgG1, V domains shown, humanized variant of 15F11) VH: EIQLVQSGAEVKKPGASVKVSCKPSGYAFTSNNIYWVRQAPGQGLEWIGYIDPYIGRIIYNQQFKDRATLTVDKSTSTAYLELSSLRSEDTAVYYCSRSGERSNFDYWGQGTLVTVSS VL: EIVLTQSPATLSLSPGERATLSCSASSSISSNYLHWYQQKPGQAPRLLIYRTSNLASGIPARFSGSGSGTDFTLTISSLEPEDFAVYYCQQGGSLPLTFGQGTKVEIK", "%", 35]
]}

Proceeding to the next binder to report its % Inhibition.
[Q] Give its % Inhibition value. Item: 15F11v5 (antibody, IgG1, V domains shown, humanized variant of 15F11) VH: EIQLVQSGAEVKKPGSSVKVSCKPSGYAFTSNNIYWVRQAPGQGLEWIGYIDPYIGRIIYNQQFKDRATLTVDKSTSTAYMELSSLRSEDTAVYYCSRSGERSNFDYWGQGTLVTVSS VL: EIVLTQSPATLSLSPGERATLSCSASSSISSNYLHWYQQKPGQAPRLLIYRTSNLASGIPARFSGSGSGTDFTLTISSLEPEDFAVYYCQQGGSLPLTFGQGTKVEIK
[A] -35
